// provenance: PubChem BioAssay AID588675

biological target: Mas-related G-protein coupled receptor member X1 (Homo sapiens) (UniProt Q96LB2); test: allosteric enhancers of human MrgX1 signaling – HEK293 cells, Fluo-4 calcium flux, primary screen (AID 588675); conditions: MrgX1-HEK293, Fluo-4 calcium flux, FDSS, at 10 µM;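 also: compound read alongside a low EC10 to EC30 dose of BAM8-22 agonist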
Sequence (Q96LB2 whole entry, looked up): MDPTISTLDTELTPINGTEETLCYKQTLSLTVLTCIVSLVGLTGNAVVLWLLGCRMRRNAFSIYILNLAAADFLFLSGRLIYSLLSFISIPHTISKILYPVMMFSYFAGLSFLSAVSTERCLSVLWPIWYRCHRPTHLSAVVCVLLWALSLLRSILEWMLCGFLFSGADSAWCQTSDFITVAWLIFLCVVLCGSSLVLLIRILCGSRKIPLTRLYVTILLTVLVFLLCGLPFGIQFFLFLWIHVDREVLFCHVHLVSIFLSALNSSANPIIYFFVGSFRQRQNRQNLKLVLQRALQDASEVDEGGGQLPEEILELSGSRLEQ
Out of some 310,000 compounds screened, about 1,900 (0.61%) were called active.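 The calls were made as follows: active = plate-corrected calcium response at least 3 library SD above typical, normal starting fluorescence, not activating the receptor alone; inactive = the rest.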 The full list was thinned out, with actives kept by preference.
Write down the outcome that applies. Available outcomes: active, inactive

# lookup: test call for O=C(COC(=O)c1ccccc1)Nc1ccc(Cl)cc1C(=O)c1ccccc1 inactive

Query: recorded result category for CC1CCCCN1Cc1cccnc1 (stereo not drawn) in this test inactive

Dear all, I need the recorded test outcome for CN(C)C(=O)Oc1ccc(OCc2cccc[n+]2C)cc1 , thank you. inactive

Which outcome was entered for the compound C=CCN1C(=O)C2(C(C(=O)OCC)=C(N)Oc3c2c(=O)oc2ccccc32)c2ccccc21 (stereo not drawn) in this test? active

Assay outcome for Cc1ccc(-c2nn(CCC#N)cc2C(=O)O)cc1C : what was it? inactive

Tell me the recorded outcome of this test for COC(=O)CN1C(=O)C2(C(C(=O)OC)=C(N)Oc3ccccc32)C2=C1CC(C)(C)CC2=O (stereo not drawn) . inactive

Check the results log: what was the call for CCOC(=O)CC1=C(C(=O)OCC)C2(C(=O)N1)C(C(=O)OC)=C(N)Oc1ccccc12 (stereo not drawn) ? inactive

Check the results log: what was the call for CN1CCc2cc3c(cc2[C@H]1[C@@H]1OC(=O)c2c1ccc1c2OCO1)OCO3 ? inactive
